# Target Under Test: HLA-A2.1 molecules on T2 (TAP-, HLA-A2.1+) cells (human)
# Assay Method Text: T2 cells, HLA-A2.1 stabilisation, BB7.2 immunofluorescence FACS
Please provide measured relative affinity (RA) (ratio to reference peptide HIV 1 rt.476) for the entries that follow.

# Binder, Value Observed
measured = [
    ("RMPEAAPPV (modifications not checked) [p53.65]", 0.91),
    ("MLLAVLYCL (modifications not checked) [Tyrosinase.1]", "> 60"),
    ("VLYRYGSFSV (modifications not checked) [gp100.476]", 10),
    ("YMDGTMSQV (modifications not checked) [Tyrosinase.368-D]", 2.27),
    ("LLDGTATLRL (modifications not checked) [gp100.457]", 1.65),
    ("YMNGTMSQV (modifications not checked) [Tyrosinase.368-N]", 2.2),
]

// input: 2 binders below; output: relative affinity (RA) (ratio to reference peptide HIV 1 rt.476) for each
1. VLPDVFIRC (modifications not checked) [NA17-A.nt38]
2. ILTVILGVL (modifications not checked) [Melan-A/MART-1.32]

OUTPUT:
1.52
21.1
